SYSTEM UNDER TEST: HuR (human antigen R) (Homo sapiens, UniProt Q15717)
Sequence (Q15717 18-186): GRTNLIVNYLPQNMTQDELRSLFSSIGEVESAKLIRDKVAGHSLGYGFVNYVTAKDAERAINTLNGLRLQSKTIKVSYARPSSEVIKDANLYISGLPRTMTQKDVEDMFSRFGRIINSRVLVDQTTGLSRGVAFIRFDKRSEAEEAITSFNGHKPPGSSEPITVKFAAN
ATTRIBUTE MEASURED: pKd
Answers are plain numbers, as −log10 of the molar value.

Could you please provide reported pKd for `CC1=NN(c2ccc(C)c(C)c2)C(=O)/C1=N\Nc1cccc(-c2cccc(C(=O)O)c2)c1O` ? Thanks!
5.60
